Where do the numbers come from? From PubChem BioAssay AID696.

Molecular target: Alkaline phosphatase, placental type (Homo sapiens) (UniProt P05187)
Sequence (P05187 whole entry, looked up): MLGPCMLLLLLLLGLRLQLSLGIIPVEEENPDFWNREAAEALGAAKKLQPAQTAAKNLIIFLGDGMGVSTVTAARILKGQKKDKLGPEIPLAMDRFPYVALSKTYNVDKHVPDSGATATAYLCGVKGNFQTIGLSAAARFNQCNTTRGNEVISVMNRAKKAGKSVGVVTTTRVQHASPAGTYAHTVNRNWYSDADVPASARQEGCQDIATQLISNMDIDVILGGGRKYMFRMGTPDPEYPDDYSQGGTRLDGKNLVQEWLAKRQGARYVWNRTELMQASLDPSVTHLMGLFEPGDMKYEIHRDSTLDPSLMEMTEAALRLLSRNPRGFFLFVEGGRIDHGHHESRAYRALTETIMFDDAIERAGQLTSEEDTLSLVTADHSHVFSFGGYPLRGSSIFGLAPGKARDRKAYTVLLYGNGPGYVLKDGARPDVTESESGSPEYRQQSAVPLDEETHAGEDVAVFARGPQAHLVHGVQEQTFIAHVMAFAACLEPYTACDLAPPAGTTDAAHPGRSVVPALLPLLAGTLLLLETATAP
Experiment: activation of human placental alkaline phosphatase – biochemical, luminescence, HTS (AID 696)
Conditions: purified PLAP enzyme, luminescent substrate read-out; at 20 µM
Hit rate of the full screen: of about 96,000 compounds, about 1,200 (1.2%) were called active. Cut-off read from the data, not from the text of the source: active = activation fold above about 2; inactive = the rest. This is one part of a sample in which actives are shown more often than they occur.
Hi there, use one of these labels in your reply, thanks! Y (active), N (inactive)

1. COC(=O)c1ccc(C(=O)Nc2cc(Cl)ccc2Cl)cc1NC(=O)c1ccccc1C	N
2. CCOC(=O)CSc1nnc(CNC(=O)Cc2ccccc2)n1-c1ccccc1OC	N
3. COc1c(F)c(F)c(C(=O)O)c(Nc2ccccc2C)c1F	N
4. CN1/C(=C\C(=O)c2oc3ccccc3c2N)C(C)(C)c2ccccc21	N
5. NC(=O)c1ccsc1NC(=O)c1ccco1	N
6. O=C(c1cccs1)N1CCN(Cc2ccc3c(c2)OCO3)CC1	N

Give the logged outcome of this assay for the following compound: CCOC(=O)c1[nH]c2ccc(OC)cc2c1NC(=O)N1CCOCC1
N

Give the logged outcome of this assay for the following compound: Cc1ccc(SC(=O)COc2ccc(C)c(C)c2)cc1
N

###

Target: Alkaline phosphatase, placental type (Homo sapiens) (UniProt P05187)
Assay: activation of human placental alkaline phosphatase – biochemical, luminescence, HTS (AID 696)
Details: purified PLAP enzyme, luminescent substrate read-out; at 20 µM
In all, about 96,000 compounds went through this assay and about 1,200 (1.2%) were called active. Rule as the data show it: active = activation fold above about 2; inactive = the rest. Only a selection was taken, and actives are over-represented in it overall.
Hi there, use one of these labels in your reply, thanks! active, inactive

1) COc1ccc(CNC(=O)CCn2cccc2)cc1	inactive
2) CC(C)(C)c1ccc(C(=O)CSc2ncn[nH]2)cc1	inactive
3) CC1CCN(C(NC(=O)c2ccco2)C(=O)c2ccccc2)CC1 (stereo not given)	inactive
4) COc1ccc(COC(=O)c2n[nH]c3ccccc23)cc1F	inactive
5) CC1=NN(C(=O)c2ccccc2Br)C(O)(c2cccnc2)C1 (stereo not given)	inactive

Give the logged outcome of this assay for the following compound: Cc1ccc(S(=O)(=O)NCCSC(C)(C)C)cc1
inactive

Give the logged outcome of this assay for the following compound: O=C(CN1C(=O)C2C3C=CC(C3)C2C1=O)NCCc1ccccc1Cl (stereo not given)
inactive

Give the logged outcome of this assay for the following compound: COc1ccc(C(C#N)N2N=C(C)CC2(C)C)cc1 (stereo not given)
inactive

Give the logged outcome of this assay for the following compound: CC(C)CNC(=S)NNC(=O)c1ccccc1OC(F)F
inactive

Give the logged outcome of this assay for the following compound: O=C(CSc1ncn[nH]1)Nc1ccnc2ccccc12
inactive

Give the logged outcome of this assay for the following compound: Cc1c(C(=O)N2CCOCC2)[nH]c2ccc(OCc3ccccc3)cc12
active

Give the logged outcome of this assay for the following compound: S=C(NCc1cccs1)Nc1ccc(Cl)cc1
inactive

Give the logged outcome of this assay for the following compound: COc1ccccc1CCNC(=O)c1cnccn1
inactive

Give the logged outcome of this assay for the following compound: CC(C)NC(=O)c1ccc(Sc2ccccc2)c([N+](=O)[O-])c1
inactive

Give the logged outcome of this assay for the following compound: COCCCNCC(=O)Nc1sc(C)c(C)c1C(=O)OC
active

###

Molecular target: Alkaline phosphatase, placental type (Homo sapiens) (UniProt P05187)
Test: activation of human placental alkaline phosphatase – biochemical, luminescence, HTS (AID 696)
Conditions: purified PLAP enzyme, luminescent substrate read-out; at 20 µM; hits give high values
The whole screen tested about 96,000 compounds, of which about 1,200 (1.2%) were called active. Shown is part of a subset that was picked to be rich in actives.
Rule: activation fold of 1 or more gives True; anything lower gives False.

Here's what some known entries look like.
1. Cc1ccc(NC(=O)N2CCC(O)(c3cccnc3)CC2)cc1	False
2. CCN(C(=O)CSc1ncn[nH]1)c1cccc2ccccc12	True

Answer whether activation fold of Cc1cccc(NC(=O)CSc2nnc(-c3ccco3)o2)c1 is greater than or equal to 1.
True

Answer whether activation fold of CN(Cc1ccccc1)c1nc2c(c(=O)[nH]c(=O)n2C)n1CCSc1nc2ccccc2[nH]1 is greater than or equal to 1.
True

Answer whether activation fold of O=C(CCCN1C(=O)c2cccc3cccc(c23)C1=O)N1CCN(Cc2ccc3c(c2)OCO3)CC1 is greater than or equal to 1.
True

Answer whether activation fold of Cc1cc(N2CCN(S(=O)(=O)c3ccc(C)c(C)c3)CC2)c2ccccc2n1 is greater than or equal to 1.
True

Answer whether activation fold of CCOC(=O)c1c(NC(=O)c2cccs2)sc(C)c1C is greater than or equal to 1.
True

Answer whether activation fold of CC1CC(C)CN(C/C=C/c2ccccc2[N+](=O)[O-])C1 (stereo not given) is greater than or equal to 1.
True

Answer whether activation fold of NC(=O)C1(N2CCCCC2)CCN(C(=S)Nc2ccc(Cl)cc2)CC1 is greater than or equal to 1.
False
